- protocol notes: Cycloheximide Counterscreen for Small Molecule Inhibitors of Shiga Toxin; also: read at 38.3 µM for the half of the compounds with a filed dose; 0% is about no effect
- settings: cell reporter, cycloheximide protein synthesis inhibition counterscreen; stronger effect = higher value
Out of some 300,000 compounds screened, about 37,000 (12%) were called active. What follows is part of a selection rich in actives, with near analogues and random picks from the rest.
endpoint: max response (%)

CN(C)S(=O)(=O)c1cccc(NC(=O)COC(=O)C2(c3ccccc3F)CCCC2)c1	-2.67
Clc1ccc(CN2CCCCCC2)cc1Cl	-3.66
COc1ccc(-c2csc(-c3cccs3)n2)cc1OC	59.6
O=c1c(-c2ccccc2)cnc2n1CCS2	-4.67
COc1ccc(OC)c(-c2csc(-c3cccs3)n2)c1	30.2
O=S(=O)(NC1CC1)c1ccc(F)c(F)c1	-2.05

====

- protocol notes: Cycloheximide Counterscreen for Small Molecule Inhibitors of Shiga Toxin; also: read at 38.3 µM for the half of the compounds with a filed dose; 0% is about no effect
- settings: cell reporter, cycloheximide protein synthesis inhibition counterscreen; stronger effect = higher value
Out of some 300,000 compounds screened, about 37,000 (12%) were called active. The full list was thinned out, with actives kept by preference.
endpoint: max response (%)

CCc1ccc(NC(=O)N2CCN(c3ccccc3)CC2)cc1	12
CN(C)CCCN(C(=O)COc1ccccc1)c1nc2c(Cl)cccc2s1	-4.5
COc1cc2c(cc1OC)CN(CC(=O)Nc1ccc(F)cc1)CC2	-3.51
Cc1c(Cl)cccc1NC(=O)NCCCN1CCCC1=O	-0.801
CC(NC(=O)COc1cccnc1[N+](=O)[O-])c1ccc(Cl)cc1Cl (stereo not drawn)	-5.73
O=C(Nc1ccccc1)OCc1cc(-c2ccc(Cl)cc2)on1	-2.77
CCOC(=O)CSc1nnc(-c2cccc(Br)c2)o1	-2.27
COc1ccc(OC)c(C2C3=C(N=c4s/c(=C\c5cccc(O)c5)c(=O)n42)c2ccccc2CC3)c1 (stereo not drawn)	-1.53
CCc1ccc(C2N3CC4([N+](=O)[O-])CN2CC([N+](=O)[O-])(C3)C4(C)C)cc1 (stereo not drawn)	-2.16
CCc1ccc(NC(=O)N2CCc3ccccc3C2)cc1	49.7
CCOC(=O)n1c(SCC(=O)N(CC)CC)nc2ccccc21	0.246
CCS(=O)(=O)c1ccc2oc(SCC(=O)N3c4ccccc4CC3C)nc2c1 (stereo not drawn)	-5.84
COc1ccc(/C=C2\SC(=S)N(CC(=O)NNC(=O)c3ccncc3)C2=O)cc1	5.86
CCN(CC)C(=O)CSc1nc2ccccc2o1	21.2
O=C1CCCC(O)=C1N=Nc1ccc(S(=O)(=O)N2CCOCC2)cc1	16
COc1ccc(CCNC(=O)CN(C)S(=O)(=O)c2ccc3nc(C)sc3c2)cc1OC	-1.23
O=C(Oc1cccnc1)c1cc2ccccc2oc1=O	-1.97
NS(=O)(=O)c1ccc2nc(NC(=O)CS(=O)(=O)c3ccc(F)cc3)sc2c1	1.51
COc1ccc(C(C(=O)NC2CCCCC2)N(C(=O)Cc2c[nH]c3ccccc23)c2ccccc2)cc1OC (stereo not drawn)	-2.16
CN(CC(=O)Nc1cccc(F)c1)CC(=O)Nc1cccc([N+](=O)[O-])c1	13.6
O=C(CSc1nc2ccccc2o1)N1CCN(c2ccccc2)CC1	-3.14
COc1cccc2c(N/N=C/c3ccco3)cc(C)nc12	18.9
CCN1CCN(C(=O)C2CCN(S(=O)(=O)c3cc(Cl)ccc3Cl)CC2)CC1	-1.01
CCc1c(C)nc2c(OC)cccc2c1Cl	10.5
CCCC1(C(=O)OCC)NC(c2ccc(N(C)C)cc2)C2C(=O)N(c3ccc4c(c3)OCCO4)C(=O)C21 (stereo not drawn)	-5.79
CC(C)(C)C(=O)CSc1nc2ccccc2o1	34.5
CCO[C@@H]1OC(C(=O)NC2CC2)=C[C@H](C)[C@H]1CCCO	-1.17
O=C(Nc1ccc(Cl)cc1)OCc1cc(-c2ccccc2)on1	22.5
COc1ccc(/C=C2\SC(=N)N(c3ccc(F)cc3)C2=O)cc1	-4.26
O=C(Nc1cccc([N+](=O)[O-])c1)N1CCc2ccccc2C1	51.1
CN(CCC(=O)Nc1cc(S(=O)(=O)N(C)C)ccc1Cl)CC(=O)Nc1ccc(F)cc1	-1.74
CN(C)c1cccc(C(=O)N2CCC(n3nccc3NC(=O)C3CCOC3)CC2)c1 (stereo not drawn)	5.41
O=C(Nc1ccc(S(=O)(=O)N2CCCC2)cc1Cl)C1=COCCO1	-1.75
